Provide the reported inhibition at 100 µM of each item.
system: SdiA (Salmonella enterica subsp. enterica serovar Typhimurium)
assay overview: S. Typhimurium-pJNS25 SdiA reporter, competitive antagonism against 10 nM L-OOHL
Assay type: cell-based
condition label: 100 μM compound; average ± STD, change in activity from 10 nM 2 (OOHL); read-out: Antagonism 100 μM Inhibition (%)
Numbers only, in %.

Answered cases to consult:
{"molecule": "O=C(COc1ccc(I)cc1)N[C@H]1CCSC1=O", "unit text": "%", "inhibition at 100 µM": 3}
{"molecule": "O=C(CCC1CCCCC1)N[C@H]1CCOC1=O", "unit text": "%", "inhibition at 100 µM": 8}
{"molecule": "CSc1ccc(CCC(=O)N[C@H]2CCOC2=O)cc1", "unit text": "%", "inhibition at 100 µM": 39}
{"molecule": "O=C(Cc1ccc(-c2ccccc2)cc1)N[C@H]1CCSC1=O", "unit text": "%", "inhibition at 100 µM": 46}
{"molecule": "O=C(Oc1c(Br)cc(Br)cc1CNC(=O)c1ccccc1[N+](=O)[O-])c1ccccc1Cl [19R, reference compound]", "unit text": "%", "inhibition at 100 µM": 38}

// input: 5 molecules below; output: inhibition at 100 µM for each
1. Cc1cccc(CC(=O)N[C@H]2CCOC2=O)c1 [E1]
2. O=C(Cc1cccc(Br)c1)N[C@H]1CCOC1=O
3. CCOC(=O)CNC(=O)Cc1ccc(Br)cc1
4. Cc1ccc(OCC(=O)N[C@H]2CCOC2=O)cc1
5. O=C(CC1CCCCC1)N[C@H]1CCOC1=O

Outgoing:
-14
-22
53
-17
1

// input: 3 molecules below; output: inhibition at 100 µM for each
1. CCOC(=O)CNC(=O)Cc1ccc(OC)cc1
2. [N-]=[N+]=NCCCCCCCCCCCC(=O)N[C@H]1CCOC1=O
3. O=C(COc1ccc(I)cc1)N[C@H]1CCOC1=O

Outgoing:
[36, -35, -15]

###

system: SdiA (Salmonella enterica subsp. enterica serovar Typhimurium, UniProt O66040)
Sequence (O66040 entry or part of it): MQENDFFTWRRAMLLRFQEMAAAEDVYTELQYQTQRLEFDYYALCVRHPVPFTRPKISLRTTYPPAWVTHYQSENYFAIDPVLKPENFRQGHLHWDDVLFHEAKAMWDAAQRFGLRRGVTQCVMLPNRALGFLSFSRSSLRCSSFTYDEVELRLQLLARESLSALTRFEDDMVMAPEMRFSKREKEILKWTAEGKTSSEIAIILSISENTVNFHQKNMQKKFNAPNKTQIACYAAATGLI
assay overview: S. Typhimurium-pJNS25 SdiA reporter, competitive antagonism against 10 nM L-OOHL
Assay type: cell-based
condition label: 1 μM compound; average ± STD, change in activity from 10 nM 2 (OOHL)
Binary classification by Antagonism 1 μM Inhibition (%), with 10% as an inclusive lower bound for MET; all other cases are NOT MET.

Below, 4 compounds whose answers are already recorded.
{"compound": "Cc1nc(-c2ccccc2)oc1CC(=O)N[C@H]1CCOC1=O", "answer label": "MET"}
{"compound": "COc1cc(C(C)=O)ccc1OCC(=O)N[C@H]1CCOC1=O", "answer label": "MET"}
{"compound": "O=C(CCc1ccccc1)N[C@H]1CCOC1=O", "answer label": "MET"}
{"compound": "CCCC(=O)N[C@H]1CCOC1=O [A1, reference compound]", "answer label": "NOT MET"}

Incoming: Does Antagonism 1 μM Inhibition (%) meet or surpass 10% for "O=C(Cc1c[nH]c2ccccc12)N[C@H]1CCOC1=O" ?
Outgoing: NOT MET

Incoming: One more compound: "CCOc1ccc(CC(=O)N[C@H]2CCOC2=O)cc1"
Outgoing: MET

Incoming: One more compound: "COc1ccc(CCC(=O)N[C@H]2CCOC2=O)cc1"
Outgoing: MET

Incoming: One more compound: "O=C(Cc1cccc(F)c1)N[C@H]1CCOC1=O"
Outgoing: NOT MET

Incoming: One more compound: "N#Cc1ccc(CC(=O)N[C@H]2CCOC2=O)cc1"
Outgoing: MET

Incoming: One more compound: "O=C(CCc1cccc(Br)c1)N[C@H]1CCOC1=O"
Outgoing: MET

Incoming: One more compound: CCCC(=O)CC(=O)N[C@H]1CCOC1=O [compound 3, reference compound]
Outgoing: NOT MET
